- Test system: Trypanosoma cruzi
- MEASUREMENT PROTOCOL: Trypanocidal activity against amastigotes form of Trypanosoma cruzi CA-I/72 infected in mouse C2C12 cells assessed as inhibition of parasite replication incubated for 48 hrs by DAPI staining based microscopic analysis
- Assay type: functional, organism-based
- CONDITION: CA-I/72, C2C12, 48 h
MEASURE NAME: pEC50
Give bare numbers, as −log10 of the molar value.

Some solved entries appear below for comparison.
{"MOL": "O=C(Nc1ccccc1)c1ccc(Nc2nc(NCCN3CCOCC3)c3ccccc3n2)cc1", "MEASURE NAME": "pEC50", "MEASURED": 6.10}
{"MOL": "Cn1cnc2c(NCc3ccccc3)nc(Nc3ccc(Cl)cc3)nc21", "MEASURE NAME": "pEC50", "MEASURED": 4.92}

Provide pEC50 for all items below, preserving their order.
1. Oc1cccc(Nc2nc(NCc3ccccc3)c3ccccc3n2)c1
2. O=C(c1ccc(Nc2nc(NCc3ccccc3)c3ccccc3n2)cc1)N1CCOCC1
3. c1ccc(Nc2nc(Nc3ccccc3)c3ccccc3n2)cc1

Given back:
[6.03, 6.10, 6.05]
